# System: MOLT-4 leukemia
# run description: NCI tumour cell line growth inhibition, 48 h

# molecule, target entity, TGI
records = [
    ("COc1ccc2c(c1)c(-c1cc(-c3cn(C)c4ccc(OC)cc34)[nH]n1)cn2C", "MOLT-4 leukemia", "> 100 µM"),
    ("Cc1cc(N(CCC#N)CCC#N)ccc1/C=C/C(=O)Nc1ccccc1Cl", "MOLT-4 leukemia", "> 100 µM"),
    ("O=c1n(CCCN2CCOCC2)nc2n1-c1ccc3ccccc3c1SC2", "MOLT-4 leukemia", "> 100 µM"),
    ("COc1ccc2nc3cc(Cl)ccc3c(Nc3ccc(O)c(CN4CCCC4)c3)c2c1", "MOLT-4 leukemia", "11.4 µM"),
    ("c1cc2ccc1C1NCCCN1CCN1CCCNC1c1ccc(cc1)C1NCCCN1CCN1CCCNC21 (stereo not drawn)", "MOLT-4 leukemia", "> 100 µM"),
    ("C=CCN(N=O)C(=O)ON1C(=O)CCC1=O", "MOLT-4 leukemia", "> 100 µM"),
    ("CC1=CC(O)CC(C)(C)C1/C=C/C(C)=C/C=C/C(C)=C/C=C/C=C(C)/C=C/C=C(C)/C=C/C1=C(C)CC(O)CC1(C)C (stereo not drawn)", "MOLT-4 leukemia", "> 100 µM"),
    ("O=C1[C@H]2ON(c3ccccc3)C(c3cccc([N+](=O)[O-])c3)[C@H]2C(=O)N1c1ccc(Cc2ccc(N3C(=O)[C@@H]4ON(c5ccccc5)C(c5cccc([N+](=O)[O-])c5)[C@@H]4C3=O)cc2)cc1 (stereo partly drawn)", "MOLT-4 leukemia", "> 100 µM"),
    ("Nc1ccc2c(SCC(=O)Nc3ccccc3-c3ccccc3NC(=O)CSc3c4ccccc4nc4cc(N)ccc34)c3ccccc3nc2c1", "MOLT-4 leukemia", "> 44.1 µM"),
    ("CN1C(=O)CC2(C)c3cc(C=O)ccc3N(C)C12 (stereo not drawn)", "MOLT-4 leukemia", "> 100 µM"),
    ("COc1ccc(C(=O)/C=C/c2ccc(OCCCCCCCCCCOc3ccc(/C=C/C(=O)c4ccc(OC)c(OC)c4)cc3)cc2)c(OC)c1", "MOLT-4 leukemia", "> 100 µM"),
    ("CC1OC2OC3C(OCC(O)C3O)OC(=O)[C@]34CCC(C)(C)CC3C3=CCC5[C@@]6(C)C[C@H](O)[C@H](OC7OC(CO)C(O)C(O)C7OC7OC(COC(=O)CC(C)(O)CC(=O)OC1C(OC1OC(CO)C(O)C(O)C1O)C2O)C(O)C(O)C7O)[C@@](C)(CO)C6CC[C@@]5(C)[C@]3(C)CC4 (stereo partly drawn)", "MOLT-4 leukemia", "12.7 µM"),
    ("CCCCOP1(=O)C=CC(Cl)=C(C)C1 (stereo not drawn)", "MOLT-4 leukemia", "25.3 µM"),
    ("Nc1cc2nc(-c3ccccc3)cn2cn1", "MOLT-4 leukemia", "> 100 µM"),
    ("CCCC/C=C1\\CCC(CN2CCCC2)C1=O (stereo not drawn)", "MOLT-4 leukemia", "36.2 µM"),
    ("N#Cc1ccnc(C(=O)N2CCCC2C(=O)O)c1 (stereo not drawn)", "MOLT-4 leukemia", "> 100 µM"),
    ("Cc1ccc(S(=O)(=O)N2CCc3cc(O)c([N+](=O)[O-])cc32)cc1", "MOLT-4 leukemia", "> 100 µM"),
    ("O=C(O)C(CS)N=Cc1nc(-c2ccccc2)oc1O (stereo not drawn)", "MOLT-4 leukemia", "> 100 µM"),
]

====

# Tested on: A549 NSCLC
# run description: NCI tumour cell line growth inhibition, 48 h
Catalogue of TGI readings, one per entry.

# compound, TGI
data = [
    ("CCOc1cccc(/C=N/NC(=O)Cc2ccc(Nc3ccnc(C(F)(F)F)c3)cc2)c1O", "> 100 µM"),
    ("CC1CCc2sc3[nH]c(=S)n(C)c(=O)c3c2C1 (stereo not drawn)", "> 100 µM"),
    ("O=C(CCl)Nc1ccc(C(=O)N/N=C/c2ccc(Cl)cc2)cc1", "15.2 µM"),
]

====

Collected TGI values appear next to each entry.
# Tested on: SK-MEL-28 melanoma
# run description: NCI tumour cell line growth inhibition, 48 h

# smiles, target entity, TGI
data = [
    ("Cc1nc2ccccc2n1Cc1ccc(NC(=S)Nc2ccccc2)cc1", "SK-MEL-28 melanoma", "> 100 µM"),
    ("Nn1nnc2ccccc21", "SK-MEL-28 melanoma", "> 100 µM"),
    ("COc1ccc(-c2nc(/C=N/Nc3cc(C)nc4ccc(Br)cc34)c(C)o2)cc1", "SK-MEL-28 melanoma", "3.23 µM"),
    ("COc1ccc(-c2oc3cc(OC)ccc3c(=O)c2O)cc1", "SK-MEL-28 melanoma", "> 31.6 µM"),
    ("C1=CC=C2NCCSCCNC3=CC=CC=CC3=NCCSCCN=C2C=C1", "SK-MEL-28 melanoma", "> 100 µM"),
    ("O=C(O[C@@H](/C=C/c1ccccc1)P1(=O)N(Cc2ccccc2)[C@@H]2CCCC[C@H]2N1Cc1ccccc1)c1ccccc1", "SK-MEL-28 melanoma", "> 100 µM"),
    ("C=CCN(N=O)C(=O)ON1C(=O)CCC1=O", "SK-MEL-28 melanoma", "> 100 µM"),
    ("COc1cc2c(c(OC)c1OC)-c1ccc(SC)c(=O)cc1[C@@H](NC(=O)c1ccc(F)cc1)CC2", "SK-MEL-28 melanoma", "> 100 µM"),
    ("CCOP(=O)(COCCn1nc(Br)c(=O)[nH]c1=O)OCC", "SK-MEL-28 melanoma", "> 100 µM"),
    ("COc1cc(/C=C2/C(=O)N(C(=O)c3ccccc3O)N=C2C)ccc1O", "SK-MEL-28 melanoma", "> 100 µM"),
    ("COc1ccc(-c2nn(-c3cccc(Cl)c3)cc2/C=C2\\C(=N)N(c3ccccc3)N=C2N)cc1", "SK-MEL-28 melanoma", "> 100 µM"),
]

====

# Tested on: OVCAR-8 ovarian
# run description: NCI tumour cell line growth inhibition, 48 h; in the data active means GI50 below about 0.43 µM; inactive means the rest
Classes used: active, inactive

# compound, cat
records = [
    ("COc1cc(/C=C2\\C(=O)Nc3ccc(Br)cc32)cc(OC)c1OC", "inactive"),
    ("Cc1cc(Nc2cc(N3CCN(C)CC3)nc(C#Cc3ccccc3)n2)n[nH]1", "inactive"),
    ("C/C(=N\\O)[C@H]1CC[C@@]2(C)[C@@H]3CC[C@H]4C(C)(C)/C(=N/O)CC[C@@]45CC35CC[C@]12C (stereo partly specified)", "inactive"),
    ("COc1ccc(-c2nc(/C=N/Nc3cc(C)nc4ccc(Br)cc34)c(C)o2)cc1", "inactive"),
    ("CCOc1cccc(/C=N/NC(=O)Cc2ccc(Nc3ccnc(C(F)(F)F)c3)cc2)c1O", "inactive"),
    ("Cc1ccc2c(C(C[N+](=O)[O-])c3ccco3)c(-c3ccccc3)[nH]c2c1 (stereo unspecified)", "inactive"),
    ("Cc1ccc(-c2cc(C(Cl)Cl)on2)cc1", "inactive"),
    ("COc1ccc(-c2conc2-c2ccccc2)cc1", "inactive"),
    ("CCc1ccc(OCc2ccccc2C(=O)Nc2ccc3nc(C)cc(N)c3c2)cc1", "inactive"),
    ("CNc1ccc(N=Nc2cccc3ncccc23)cc1", "inactive"),
    ("COc1ccc2c(c1)c(-c1cc(-c3cn(C)c4ccc(OC)cc34)[nH]n1)cn2C", "inactive"),
    ("CCCCCCCCCCCCNC(=O)[C@H]1CSC(c2ccsc2)N1 (stereo partly specified)", "inactive"),
    ("NCCn1c2c(c3ccccc3c1=O)C(=O)c1ccccc1-2", "active"),
    ("Cc1ccc(S(=O)c2ccc([N+](=O)[O-])c3nonc23)cc1 (stereo unspecified)", "inactive"),
    ("COc1ccc(-c2nn3ncccc3c2-c2ccnc(Nc3cccc(C(F)(F)F)c3)n2)cc1", "inactive"),
    ("COc1ccc(C2NC(=S)NC3=C2COc2ccc(F)cc23)cc1OC (stereo unspecified)", "inactive"),
]

====

# Tested on: HT29 colon
# run description: NCI tumour cell line growth inhibition, 48 h; in the data active = GI50 below about 0.43 µM; inactive = the rest
Outcome codes: Y (active), N (inactive)

# compound, cat
rows = [
    ("CCOC(=O)/N=c1\\ssc(Cl)c1Cl", "N"),
    ("CCCC(=O)Nc1cn(COC)c(C(=O)N2C[C@H]3C[C@@]34C2=CC(=O)c2[nH]cc(C)c24)n1", "N"),
    ("CC(=O)[O-].O=[N+]([O-])c1ccc([O-])c(C=NCCN=Cc2cc([N+](=O)[O-])ccc2[O-])c1.[Mn+3]", "N"),
    ("COc1cc(-c2nn3c(=O)n(-c4ccc(Cl)cc4)c(=O)nc3s2)cc(OC)c1OC", "N"),
    ("COc1cc2c(c(OC)c1OC)-c1ccc(SC)c(=O)cc1[C@@H](NC(=O)c1ccc(F)cc1)CC2", "Y"),
    ("NC1(C(=O)O)CSSC1", "N"),
    ("CC(=O)c1c(Nc2ccc(F)c(F)c2F)[nH]c2c(F)cc(F)cc2c1=O", "Y"),
    ("CC[C@H](C)[C@H](NC(=O)N[C@@H](C)c1ccccc1)C(=O)N(C)[C@H](C[C@@H](OC(C)=O)c1nc(C(=O)N[C@@H](Cc2ccccc2)C[C@H](C)C(=O)OC)cs1)C(C)C", "N"),
    ("N#CC1=C(N)Oc2c(sc3c(Br)cccc23)C1c1ccc(F)cc1 (centres undefined)", "Y"),
]
